Hey, just so you know, these numbers are from paper PMC4640093.

Here, each record is paired with measured t1/2(2) PLE data.
- Tested on: pig liver esterase (PLE)
- test.description: Enzymatic hydrolysis with pig liver esterase (PLE) in PBS
- Format: in vitro ADME
- experimental.conditions: second hydrolysis step, half-lives of intermediate 4; PLE in PBS pH 7.3, 37 °C

input: Using the record for CCCCCCC(=O)Oc1ccc(COP(=O)(OCc2ccc(OC(=O)CCCCCC)cc2)OP(=O)(O)OP(=O)(O)OC[C@@H]2C=C[C@H](n3cc(C)c(=O)[nH]c3=O)O2)cc1 , state its measured t1/2(2) PLE.
output: 1.6 h

input: Retrieve t1/2(2) PLE measured for COC(=O)Oc1ccc(COP(=O)(OCc2ccc(OC(=O)OC)cc2)OP(=O)(O)OP(=O)(O)OC[C@@H]2C=C[C@H](n3cc(C)c(=O)[nH]c3=O)O2)cc1 and print it.
output: 177 h

input: Give the measured t1/2(2) PLE for CC(=O)Oc1ccc(COP(=O)(O)OP(=O)(O)OP(=O)(O)OC[C@@H]2C=C[C@H](n3cc(C)c(=O)[nH]c3=O)O2)cc1
output: 108 h

input: Item CCCCCCCCCCCCCCCCCC(=O)Oc1ccc(COP(=O)(O)OP(=O)(O)OP(=O)(O)OC[C@@H]2C=C[C@H](n3cc(C)c(=O)[nH]c3=O)O2)cc1 : provide t1/2(2) PLE
output: 57 h

input: Identify t1/2(2) PLE associated with the molecule CC(=O)Oc1ccc(COP(=O)(OCc2ccc(OC(C)=O)cc2)OP(=O)(O)OP(=O)(O)OC[C@@H]2C=C[C@H](n3cc(C)c(=O)[nH]c3=O)O2)cc1
output: 71 h

input: Please report the measured t1/2(2) PLE for CCCCCCCCC(=O)Oc1ccc(COP(=O)(OCc2ccc(OC(=O)CCCCCCCC)cc2)OP(=O)(O)OP(=O)(O)OC[C@@H]2C=C[C@H](n3cc(C)c(=O)[nH]c3=O)O2)cc1
output: 1.6 h

***
input: Check the records and state t1/2(2) PLE for CCCCCCCCOC(=O)Oc1ccc(COP(=O)(OCc2ccc(OC(=O)OCCCCCCCC)cc2)OP(=O)(O)OP(=O)(O)OC[C@@H]2C=C[C@H](n3cc(C)c(=O)[nH]c3=O)O2)cc1
output: 17 h

input: Give the measured t1/2(2) PLE for CCCCC(=O)Oc1ccc(COP(=O)(OCc2ccc(OC(=O)CCCC)cc2)OP(=O)(O)OP(=O)(O)OC[C@@H]2C=C[C@H](n3cc(C)c(=O)[nH]c3=O)O2)cc1
output: 7.7 h

input: Given CCCCCCCCCCCC(=O)Oc1ccc(COP(=O)(OCc2ccc(OC(=O)CCCCCCCCCCC)cc2)OP(=O)(O)OP(=O)(O)OC[C@@H]2C=C[C@H](n3cc(C)c(=O)[nH]c3=O)O2)cc1 , respond with its t1/2(2) PLE.
output: 8.3 h

input: Give the value of t1/2(2) PLE reported for the following: CCCCCCCCC(=O)Oc1ccc(COP(=O)(O)OP(=O)(O)OP(=O)(O)OC[C@@H]2C=C[C@H](n3cc(C)c(=O)[nH]c3=O)O2)cc1
output: 1.5 h

input: Report t1/2(2) PLE for CCCCCCCCCC(=O)Oc1ccc(COP(=O)(OCc2ccc(OC(=O)CCCCCCCCC)cc2)OP(=O)(O)OP(=O)(O)OC[C@@H]2C=C[C@H](n3cc(C)c(=O)[nH]c3=O)O2)cc1
output: 3.0 h

input: State, in one line, measured t1/2(2) PLE of CCC(=O)Oc1ccc(COP(=O)(OCc2ccc(OC(=O)CC)cc2)OP(=O)(O)OP(=O)(O)OC[C@@H]2C=C[C@H](n3cc(C)c(=O)[nH]c3=O)O2)cc1
output: 33 h

* * *

- Tested on: HIV-1(IIIB)
- test.description: Anti-HIV activity assay, HIV-1 in wild-type CEM/0 cells
- Format: cell-based
- experimental.conditions: HIV-induced giant cell formation, mean±s.d., n=2–3
measurement.name: pEC50
FYI, pEC50 means -log10 of a concentration in mol per litre.

input: Identify pEC50 associated with the compound CCCCCCCCCC(=O)Oc1ccc(COP(=O)(OCc2ccc(OC(=O)CCCCCCCCC)cc2)OP(=O)(O)OP(=O)(O)OC[C@@H]2C=C[C@H](n3cc(C)c(=O)[nH]c3=O)O2)cc1
output: 6.60

input: Please report the measured pEC50 for CCCCCCCCOC(=O)Oc1ccc(COP(=O)(OCc2ccc(OC(=O)OCCCCCCCC)cc2)OP(=O)(O)OP(=O)(O)OC[C@@H]2C=C[C@H](n3cc(C)c(=O)[nH]c3=O)O2)cc1
output: 6.44

---
input: Indicate the recorded pEC50 value for this compound: CCCCC(=O)Oc1ccc(COP(=O)(OCc2ccc(OC(=O)CCCC)cc2)OP(=O)(O)OP(=O)(O)OC[C@@H]2C=C[C@H](n3cc(C)c(=O)[nH]c3=O)O2)cc1
output: 6.40

input: Look up and state reported pEC50 for CCCCCCCCC(=O)Oc1ccc(COP(=O)(OCc2ccc(OC(=O)CCCCCCCC)cc2)OP(=O)(O)OP(=O)(O)OC[C@@H]2C=C[C@H](n3cc(C)c(=O)[nH]c3=O)O2)cc1
output: 6.51

* * *

- test.description: Enzyme-catalysed hydrolysis in CEM cell extracts
- experimental.conditions: human CEM cell extract, 37 °C
measurement.name: t1/2(1) CEM (h)
# value in h; strip the unit string

Field: example entries. Status: answers known.
input: Supply t1/2(1) CEM value. Item: CCCCCCCCCCCCCC(=O)Oc1ccc(COP(=O)(OCc2ccc(OC(=O)CCCCCCCCCCCCC)cc2)OP(=O)(O)OP(=O)(O)OC[C@@H]2C=C[C@H](n3cc(C)c(=O)[nH]c3=O)O2)cc1
output: 4.6

input: Provide measured t1/2(1) CEM value, entry: CCCCCCCCC(=O)Oc1ccc(COP(=O)(OCc2ccc(OC(=O)CCCCCCCC)cc2)OP(=O)(O)OP(=O)(O)OC[C@@H]2C=C[C@H](n3cc(C)c(=O)[nH]c3=O)O2)cc1
output: 2.5

input: Give reported t1/2(1) CEM value for CCC(=O)Oc1ccc(COP(=O)(OCc2ccc(OC(=O)CC)cc2)OP(=O)(O)OP(=O)(O)OC[C@@H]2C=C[C@H](n3cc(C)c(=O)[nH]c3=O)O2)cc1
output: 0.12

input: Provide only the value of recorded t1/2(1) CEM for COC(=O)Oc1ccc(COP(=O)(OCc2ccc(OC(=O)OC)cc2)OP(=O)(O)OP(=O)(O)OC[C@@H]2C=C[C@H](n3cc(C)c(=O)[nH]c3=O)O2)cc1
output: 0.97

input: Please look at this compound and report its t1/2(1) CEM: CCCCCCCCOC(=O)Oc1ccc(COP(=O)(OCc2ccc(OC(=O)OCCCCCCCC)cc2)OP(=O)(O)OP(=O)(O)OC[C@@H]2C=C[C@H](n3cc(C)c(=O)[nH]c3=O)O2)cc1
output: 2.6

input: Query t1/2(1) CEM for CCCCCCCCC(=O)Oc1ccc(COP(=O)(O)OP(=O)(O)OP(=O)(O)OC[C@@H]2C=C[C@H](n3cc(C)c(=O)[nH]c3=O)O2)cc1
output: 1.8

Further cases:
input: For CCCCCCCCOC(=O)N(C)CCN(C)C(=O)Oc1ccc(COP(=O)(OCc2ccc(OC(=O)N(C)CCN(C)C(=O)OCCCCCCCC)cc2)OP(=O)(O)OP(=O)(O)OCC2C=CC(n3cc(C)c(=O)[nH]c3=O)O2)cc1 (stereo not drawn) , write its t1/2(1) CEM.
output: 5.6

input: For the compound CC(=O)Oc1ccc(COP(=O)(O)OP(=O)(O)OP(=O)(O)OC[C@@H]2C=C[C@H](n3cc(C)c(=O)[nH]c3=O)O2)cc1 , give its measured t1/2(1) CEM value.
output: 0.040

input: Specify t1/2(1) CEM for CC(=O)Oc1ccc(COP(=O)(OCc2ccc(OC(C)=O)cc2)OP(=O)(O)OP(=O)(O)OC[C@@H]2C=C[C@H](n3cc(C)c(=O)[nH]c3=O)O2)cc1 and stop.
output: 0.050
